# System: SNB-19 CNS
# ASSAY TEXT: NCI-60 one-dose screen, 48 h (100 = growth as untreated, 0 = no growth, -100 = all killed)
# TEST CONTEXT: 10 µM unless noted
This is part of a sample that, as a whole, favours compounds with a hit. Of some 83,000 tested, about 20% had one in any assay.
Is growth at least 90%? Then MET. If not, NOT MET.

Look over these answered cases.
- COMPOUND: "COc1ccc(-c2n[nH]nc2-c2csc3ccccc23)cc1OC"
  CLASS NAME: "NOT MET"
- COMPOUND: "Cc1ccc(C2Oc3ccccc3C3CC(c4cccs4)=NN32)cc1 (centres undefined)"
  CLASS NAME: "MET"
- COMPOUND: "N#CN1CCC[C@H]1C(=O)N1CCc2c(-c3[nH]nc4ncccc34)cccc21"
  CLASS NAME: "NOT MET"
- COMPOUND: "CC(=O)Nc1ccc(S(=O)(=O)Nc2cccc(-c3nc(-c4ccc(NC(=O)c5cccnc5)cc4Cl)no3)c2)cc1"
  CLASS NAME: "NOT MET"
- COMPOUND: "CSc1nc(-c2cccc(NC(=O)CCl)c2)c(C#N)c(=O)n1C"
  CLASS NAME: "NOT MET"

Quick check: does Cc1ccc2oc(=O)cc(C3c4ccc([nH]4)C(c4cc(=O)oc5ccc(C)cc45)c4ccc([nH]4)C(c4cc(=O)oc5ccc(C)cc45)c4ccc([nH]4)C(c4cc(=O)oc5ccc(C)cc45)c4ccc3[nH]4)c2c1 (centres undefined) have growth greater than or equal to 90%? NOT MET

Ok, now COc1ccc(/C=C/c2nc3ccccc3nc2/C=C/c2ccc(OC)cc2)cc1 MET

Proceed to CN(C)S(=O)(=O)c1ccc(S(=O)(=O)Nc2cccc(Cl)c2N2CCCCC2)cc1 NOT MET

Try this compound next: O=S(=O)(Nc1ccc(NS(=O)(=O)c2ccccc2)c(Cl)c1)c1ccccc1 MET

* * *

# Test system: M14 melanoma
# ASSAY TEXT: NCI-60 one-dose screen, 48 h (100 = growth as untreated, 0 = no growth, -100 = all killed)
# TEST CONTEXT: 10 µM unless noted
This is part of a sample that, as a whole, favours compounds with a hit. Of some 83,000 tested, about 20% had one in any assay.
MEASUREMENT TYPE: growth (%)
Form entry: value (%) — number only.

Solved entries:
- COMPOUND: "CCOC(=O)c1sc2nc(-c3cccc(OC)c3)nc(N3CCOCC3)c2c1C"
  growth, %: 120
- COMPOUND: "C=C(C)[C@@H]1CC[C@]2(C(N)=O)CC[C@]3(C)[C@H](CC[C@@H]4[C@@]5(C)C/C(=C/c6ccco6)C(=O)C(C)(C)[C@@H]5CC[C@]43C)[C@@H]12"
  growth, %: 85.1
- COMPOUND: "CN(C)S(=O)(=O)c1cccc(-c2nc3sc4c(c3c(=O)[nH]2)CCCC4)c1"
  growth, %: 48

Which growth reading was recorded for the compound O=c1c(F)cn(Cc2ccccc2CCl)c(=O)n1Cc1ccccc1CCl ? -63.6

Then this compound: COc1cccc(C2=NN3C(C2)c2cc(Br)cc(OC)c2OC32CCN(Cc3ccccc3)CC2)c1 (centres undefined) 107

Can you check COc1cccc(-c2nc(SCC(=O)Nc3ccc(C(=O)/C=C/c4ccc(OC)c(OC)c4)cc3)[nH]c(=O)c2C#N)c1 next? 100

Moving on to the next compound: Cc1c(/C=C/[N+](=O)[O-])ccc2c1[nH]c1ccccc12 37.7

Follow-up entry: CC(=O)OC[C@H]1O[C@H](OC(C)=O)[C@H](NC(=O)/C=C/CCl)[C@@H](OC(C)=O)[C@@H]1OC(C)=O 87.5

Also C=C(C)[C@@H]1CC[C@]2(C(=O)OC)CC[C@]3(C)[C@H](CC[C@@H]4[C@@]5(C)C/C(=C/c6ccc(OC)cc6)C(=O)C(C)(C)[C@@H]5CC[C@]43C)[C@@H]12 , if possible. 91
